System: PSA
Test name: Screening SSIA by homogeneous PSA immunoassay
Assay type: biochemical
Recorded conditions: PSA 129 ng/mL (S5) vs zero; test compound final conc. 0.244 mM
S5/S0: recorded values

- Compound: "Nc1ccc2ccccc2c1O"
  S5/S0: 109
- Compound: "O=S(=O)([O-])CCCOCCCN1c2ccccc2Cc2ccccc21.[Na+]"
  S5/S0: 6
- Compound: "O=S(=O)([O-])CCCN1c2ccccc2Sc2ccccc21.[Na+]"
  S5/S0: 50
- Compound: "Nc1cccc(Cl)c1O"
  S5/S0: 300
- Compound: "O=C1C=C(O)C(=O)C=C1O"
  S5/S0: 14
- Compound: "Nc1cc(C[C@H](N)C(=O)O)ccc1O"
  S5/S0: 448
- Compound: "OB(O)c1cc(Cl)ccc1O"
  S5/S0: 22
- Compound: "Oc1ccc(Cl)cc1O [drawing 77]"
  S5/S0: 409
- Compound: "Nc1cc2ccccc2cc1O"
  S5/S0: 67
- Compound: "O=S(=O)([O-])CCCN1c2ccccc2Cc2ccccc21.[Na+]"
  S5/S0: 15
- Compound: "C=CCc1ccc(O)c(OC)c1"
  S5/S0: 30
- Compound: "Nc1cc(Cl)ccc1O"
  S5/S0: 205

* * *

B-HRP0 light intensity: recorded values
System: biotinylated HRP (Armoracia rusticana, UniProt P00433)
Construct: purchased Roche Diagnostics, Indianapolis, Ind., USA
Sequence (P00433 31-338 limits assumed): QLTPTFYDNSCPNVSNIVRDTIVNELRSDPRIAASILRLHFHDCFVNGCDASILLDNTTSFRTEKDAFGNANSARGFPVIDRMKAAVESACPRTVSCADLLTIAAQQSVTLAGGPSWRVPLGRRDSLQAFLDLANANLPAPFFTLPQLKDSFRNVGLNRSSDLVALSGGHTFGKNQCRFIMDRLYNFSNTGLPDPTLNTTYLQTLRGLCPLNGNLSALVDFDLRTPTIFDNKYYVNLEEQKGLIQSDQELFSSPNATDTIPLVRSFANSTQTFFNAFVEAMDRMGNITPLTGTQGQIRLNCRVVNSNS
Test name: Model system for selection of SSIA (M280 btn-BSA-AK1-streptavidin particles + Btn-HRP:HRP)
Assay type: biochemical
Recorded conditions: Btn-HRP 0 ng/mL, total HRP 500 ng/mL; SSIA final 100 μM
Protocol: The model system uses a microparticle conjugated to BSA (bovine serum albumin) labeled with a […] and acridan ketenedithioacetal chemiluminescent label (AK1) as the chemiluminescent-labeled sbp, and biotinylated HRP as the activator-labeled specific binding pair. In the model system, varying amounts of Btn-HRP is added to the chemiluminescent-labeled specific binding pair at 0, 1, 10, 100 and 250 ng/mL. […]
Endpoint label: B-HRP0 light intensity

- Compound: "COc1ccc2[nH]cc(CCNC(C)=O)c2c1"
  Assay result: "54,528"
- Compound: "O=c1[nH]c(=O)c2[nH]c(=O)[nH]c2[nH]1"
  Assay result: "5,532"
- Compound: "Oc1ccc(C=Cc2cc(O)cc(O)c2)cc1"
  Assay result: "64,051"
- Compound: "N[C@@H](CCC(=O)N[C@@H](CS)C(=O)NCC(=O)O)C(=O)O"
  Assay result: "26,977"
- Compound: "CC(=O)N[C@@H](CS)C(=O)O"
  Assay result: "43,647"
- Compound: "COc1cc(C(=O)O)cc(OC)c1O"
  Assay result: "14,485"
- Compound: "CC1(C)OC[C@@H]([C@H]2OC(=O)C(O)=C2O)O1"
  Assay result: 264

* * *

System: biotinylated HRP (Armoracia rusticana)
Construct: purchased Roche Diagnostics, Indianapolis, Ind., USA
Test name: Model system for selection of SSIA (M280 btn-BSA-AK1-streptavidin particles + Btn-HRP:HRP)
Type: biochemical
Recorded conditions: Btn-HRP 100 ng/mL vs 0; SSIA 100 μM
Description: The model system uses a microparticle conjugated to BSA (bovine serum albumin) labeled with a […] and acridan ketenedithioacetal chemiluminescent label (AK1) as the chemiluminescent-labeled sbp, and biotinylated HRP as the activator-labeled specific binding pair. In the model system, varying amounts of Btn-HRP is added to the chemiluminescent-labeled specific binding pair at 0, 1, 10, 100 and 250 ng/mL. […]
Use 3000 as the dividing line for S3/S0, with the line itself on the class 1 side and lower values as class 0.

- Molecule: "N[C@@H](CCC(=O)N[C@@H](CS)C(=O)NCC(=O)O)C(=O)O"
  Label value: "class 0"
- Molecule: "O=c1[nH]c(=O)c2[nH]c(=O)[nH]c2[nH]1"
  Label value: "class 0"
- Molecule: "COc1cc(C(=O)O)cc(OC)c1O"
  Label value: "class 0"
- Molecule: "CC1(C)CC(O)CC(C)(C)N1[O]"
  Label value: "class 0"
- Molecule: "Nc1ccccc1O"
  Label value: "class 1"
- Molecule: "Oc1ccc(O)c(Cl)c1 [2-chloro-1,4-dihydroxybenzene]"
  Label value: "class 0"
- Molecule: "Nc1ccc(C(=O)O)cc1O [4-Amino-3-hydroxybenzoic acid, 4-amino-3-hydroxybenzoic acid]"
  Label value: "class 1"
- Molecule: "Cl.Nc1ccc(O)cc1O [4-aminoresorcinol HCl, 4-aminoresorcinol hydrochloride]"
  Label value: "class 0"
- Molecule: "CC1(C)OC[C@@H]([C@H]2OC(=O)C(O)=C2O)O1"
  Label value: "class 1"
- Molecule: "NNC(=O)c1cccnc1 [Nicotinic Hydrazide]"
  Label value: "class 0"
- Molecule: "Cc1c(O)cc2c(c1C)O[C@](C)(CCC[C@H](C)CCC[C@H](C)CCCC(C)C)CC2 [(+)-gamma-Tocopherol, (+)-y-Tocopherol]"
  Label value: "class 0"
- Molecule: "COc1cc(/C=C/C(=O)O)ccc1O"
  Label value: "class 0"
- Molecule: "Oc1ccc(Cl)cc1O"
  Label value: "class 1"
- Molecule: "CC(=O)N[C@@H](CS)C(=O)O"
  Label value: "class 0"
- Molecule: "N[C@@H](CS)C(=O)O"
  Label value: "class 0"
- Molecule: "Cc1c(C)c2c(c(C)c1O)CCC(C)(C(=O)O)O2 (centres unmarked)"
  Label value: "class 1"
- Molecule: "CCCCCCCCCCCCCCCC(=O)OC[C@H](O)[C@H]1OC(=O)C(O)=C1O [Ascorbic Acid 6-palmitate, L-Ascorbic acid 6-Palmitate]"
  Label value: "class 1"
- Molecule: "O=C(O)CCCC[C@@H]1CCSS1 (racemic)"
  Label value: "class 0"
- Molecule: "COc1ccc2[nH]cc(CCNC(C)=O)c2c1"
  Label value: "class 0"
